assay: yeast display, Sf9 membrane polyspecificity reagent, FACS + sequencing; frameworks hold sequencing errors
metric: polyreactivity (PSR sort gate)

[[record]]
seqstring = "QVQLVESGGGLVQAGGSLRLSCAASGRIFTVYAMGWYRQAPGKERELVAAISGRGGRTYYADSVKGRFTISRDNAKNTVYLQMNSLKPEDTAGYYCNADTLTLSRPDGDIHTVWMDYWGQGTQVTVSS"
metric = "polyreactivity (PSR sort gate)"
val = "low polyreactivity"

[[record]]
seqstring = "QVQLVESGGGLVQAGGSLRLSCAASGFTFSSNAMGWYRQAPGKERELVAAISRGGRTYYADSVKGRFTISRDNAKNTVYLQMNSLKPEDTAVYYCATDYVYRYDYWGQGTQVTVSS"
metric = "polyreactivity (PSR sort gate)"
val = "high polyreactivity"

[[record]]
seqstring = "QVQLVESGGGLVQAGGSLRLRCAASGYNIQHYAMGWYRQAPGKERELVAAITSGGSTTYADSVKGRFTISRDNAKNTVYLQMNSLKPEDTAVYYCKALRRARYTRKGYEYWGQGTQVTVSS"
metric = "polyreactivity (PSR sort gate)"
val = "high polyreactivity"

[[record]]
seqstring = "QVQLVESGGGLVQAGGSLRLSCAASGRTSYYYAMGWSRQAPGKERELVAAISRSGGRTYYADSVKGRFTISRDNAKNTVYLQMNSLKPEDTAVYYCAADPRSYDTGRMDYWGQGTQVTVSS"
metric = "polyreactivity (PSR sort gate)"
val = "high polyreactivity"

[[record]]
seqstring = "QVQIVESGAGLVQAGGSLSLSCAASGSIFHDNAMGWYRQAPGKERELVAAINRGGSRHYADSVKGRFTISRDNAKNTVYFQMNSLKPEDTAVYYCAADGIRPEVGYWGQGTQVTVSS"
metric = "polyreactivity (PSR sort gate)"
val = "low polyreactivity"

[[record]]
seqstring = "QVQLVESGGGLVQAGGSLRLTCAASGFIFYYYTIGWYRQAPGKERELVAAIRTDGNTYYADSVKGRFTISRDNAKNTVYFQMNSLKPEDTAVYYCAAKIPRPYAMDYWGQGTQVTVSS"
metric = "polyreactivity (PSR sort gate)"
val = "low polyreactivity"

[[record]]
seqstring = "QVQLVESGGGLVQAGGSLRLSCAASGSIFLYNAMGWYRQAPGKERELVATITYIGGRTYYADSVKGRFTISRDNAKNTVYLQMNSLKPEDSAVYYCAAEYYVISSPSFYEYDYWGQGTQVTVSS"
metric = "polyreactivity (PSR sort gate)"
val = "low polyreactivity"

[[record]]
seqstring = "QVQLVESGGGLVQAGGSLRLSCAASGLIFPPYAMGWYRQAPGKEREFVARISWSTSSTYYADSVKGRFTISRDNAKNTVYLQMNSLKPEDTAVYYCNARFDDWWGEFDYWGQGTQVTVSS"
metric = "polyreactivity (PSR sort gate)"
val = "high polyreactivity"

[[record]]
seqstring = "QVQLVESGGGLVQAGGSLRLSCAASGSTFYVYAMGWYRQAPGKERELVASITRGGGTYADSVKGRFTISRDNAKNTVYLQMNSQKPEDTAVYYCNARWQRSTGGRQRYDYWGQGTQVSVSS"
metric = "polyreactivity (PSR sort gate)"
val = "high polyreactivity"

[[record]]
seqstring = "QVHLVESGGGLVQAGCSLRLSSSASGFTFVRNAMGWYRQAPGKERELVAAISKSGGRTYYTDSVKGRFTISRDNAKNSVYLHLNSLIPEDTAVYYCASDPVSDYYGYGYWGQGTQVTVSS"
metric = "polyreactivity (PSR sort gate)"
val = "high polyreactivity"


Please give the measured polyreactivity (PSR sort gate) for this sequence: `QVQLVESGGGLVQAGGSLRLSCAASGRTFIINGMGWYRQAPGKERELVAAITTSGGSTYYADSVKGRFTISRDNAKNTVYLQMNSLKPEDTAVYSCAADVFSRKYLYGDYDYWGQGTQVTVSS`
high polyreactivity

Please give the measured polyreactivity (PSR sort gate) for this sequence: `QVQLVESGGGLVQAGGSLRLSCAASGSIIFLYAMGWYRQAPGKERELVASISTSGTTITYYADSVKGRFTISRDNAQNTGYLQMNSLKPEDTAVYYCAAEAYGNRDYWGQGTQVTVSS`
low polyreactivity

Please give the measured polyreactivity (PSR sort gate) for this sequence: `QVHLVESGGGLVQAGGSLRLSCAASGSIFHGYSMGWYRQAPGKERELVAAINSGDGSTYADSVKGRFTISRDNAKNTVYLQMNSLKPEDTAVYYCATDGTYYEHDYWGQATQVTVSS`
low polyreactivity

Please give the measured polyreactivity (PSR sort gate) for this sequence: `QVQLVESGGGLVQAGGSLRLSCAASGSTFPYNAMGWYRQAPGKERELVAANTFSGGSTYYADSVKGRFTISRDNAKNTVYLQMNSLKPEDTAVYYCNARYPWWGQRYDYWGQGTQVTVSS`
low polyreactivity

Please give the measured polyreactivity (PSR sort gate) for this sequence: `QVQLVESGGGLVQAVGGLRLSCAASGSTFKRNTMGSYRQAPGKEMELVAAISRSGGSTYYADSVKGRFTISRDNAKNTVYLQMNSLKPEDTAVYYCNAYVSSYVGSRSYGLSPYDYWGQGTQVTVSS`
high polyreactivity

Please give the measured polyreactivity (PSR sort gate) for this sequence: `QVQLVESGGGLVQAGGSLRLSCAASGRIFNWYGMGWYRQAPGKERELVATISSSGDSTYYADSVKGRFTISRDNAKNTVYLQMNSLKPEDTAVFYCAKRARYKFGYWGQGSQVTVSS`
high polyreactivity

Please give the measured polyreactivity (PSR sort gate) for this sequence: `QVQLVESGGGLVQAGGSLRLSCAASGSIFWANAMGWYRPAPGKERELVAAINFRATITYYPASVKGRFTISRDNAKNTVYLQMNSRKPEDTAVYYCAKAQAQRYSFYYWGQGTQVTVSS`
high polyreactivity
